# TARGET SYSTEM: FAD-linked sulfhydryl oxidase ALR (Homo sapiens, UniProt P55789)
# Sequence (P55789 whole entry): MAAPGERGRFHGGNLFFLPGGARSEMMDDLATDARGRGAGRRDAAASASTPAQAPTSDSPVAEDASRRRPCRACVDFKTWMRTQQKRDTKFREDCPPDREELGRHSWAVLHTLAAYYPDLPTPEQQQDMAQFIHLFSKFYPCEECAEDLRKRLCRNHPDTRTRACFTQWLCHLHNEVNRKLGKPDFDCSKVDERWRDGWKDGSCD
# EXPERIMENT DESCRIPTION: ALR-catalysed DTT oxidation blockers – biochemical, H2O2 detection, luminescence, cherry-pick, dose response (AID 493248)
Active and inactive are the calls of the source.
PARAMETER MEASURED: AC50

1. Cc1csc(/C(=N/OC(=O)c2ccco2)C(N)=O)n1 :: 252 nM (active)
2. Nc1cc([N+](=O)[O-])ccc1Nc1ccccc1 :: 509 nM (active)
3. COC(=O)c1c(NC(=O)C2CC=CCC2C(=O)O)sc(C(N)=O)c1C (stereo not given) :: 3130 nM (active)
4. Cc1cc(Sc2nnc(/N=C/N(C)C)s2)c2ccccc2n1 :: 801 nM (active)

So, CC(=O)N1CCN(c2ccc(NCc3ccccc3)cc2)CC1 ? Its AC50 was 570 nM (active)

Record summary for Cc1ccc(Sc2ncnc3onc(C)c23)cc1 : reported AC50 = 9910 nM (active)

AC50 for CN(C)S(=O)(=O)c1ccc(-c2cn3ccccc3n2)cc1 is 2050 nM (active)

Form: molecule = NNC(=O)c1sc(-c2ccc(Cl)cc2)cc1N ; AC50 = 2390 nM (active)

Query O=C(CN1CCN(c2ccccc2)CC1)Nc1ccccc1Cl yields AC50 of 6680 nM (active)

For record CC(=O)c1cccc(Oc2cc(NN3CCCCC3)c([N+](=O)[O-])cc2[N+](=O)[O-])c1 the listed AC50 is 471 nM (active)

Measured AC50 of CN(C)c1ccc(CNc2ccc3c(c2)ncn3C)cc1 : 1780 nM (active)

Short answer for COc1cc(NS(=O)(=O)c2ccc(NC(=O)NC3CCCCC3)cc2)nc(OC)n1 : AC50 was 3490 nM (active)

Entry Cc1ccc(-c2nc3ccccn3c2Nc2ccccc2)o1 , AC50 reported as 235 nM (active)

Kindly note the recorded AC50 for C/C(CC(=O)Nc1ccc2ccccc2c1)=N\NC(=O)c1ccc(O)c(O)c1 , which is 4300 nM (active)

Input Cc1ccc(O)c(CCc2ccc(O)cc2)n1 . Output AC50: 2640 nM (active)

----------
# TARGET SYSTEM: Paired box protein Pax-8 (Homo sapiens)
# Sequence (Q06710 whole entry): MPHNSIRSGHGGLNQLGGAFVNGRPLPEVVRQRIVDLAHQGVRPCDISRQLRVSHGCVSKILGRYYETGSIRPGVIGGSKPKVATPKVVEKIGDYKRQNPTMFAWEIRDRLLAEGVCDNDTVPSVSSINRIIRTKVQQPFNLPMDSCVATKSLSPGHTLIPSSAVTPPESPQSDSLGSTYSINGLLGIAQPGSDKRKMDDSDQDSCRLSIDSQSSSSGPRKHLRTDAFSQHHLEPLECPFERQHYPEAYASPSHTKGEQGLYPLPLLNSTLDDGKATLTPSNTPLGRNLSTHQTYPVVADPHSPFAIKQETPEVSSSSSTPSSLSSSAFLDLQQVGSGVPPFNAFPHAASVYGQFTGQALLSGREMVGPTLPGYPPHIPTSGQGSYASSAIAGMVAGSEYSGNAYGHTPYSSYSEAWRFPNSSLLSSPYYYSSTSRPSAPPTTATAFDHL
# EXPERIMENT DESCRIPTION: PAX8 transcriptional activity inhibition in RMG-I – RMG-I cells, luciferase, cherry-pick, dose response (AID 687027);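 further: luciferase reporter driven by Pax8 target thyroperoxidase promoter measured by SteadyGlo luminescence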
# Format: functional, cell-based
The source made the active and inactive calls.
PARAMETER MEASURED: AC50

1. COc1ccc(NC(=O)N2CCCCN3[C@@H](CO)[C@@H](c4ccc(C#Cc5ccccc5)cc4)[C@@H]3C2)cc1 :: 14.9 µM (active)
2. Cc1ccc2c(CC(=O)OCC(=O)Nc3ccc(Cl)cn3)coc2c1 :: 14.2 µM (active)

molecule CSCCC(c1nnnn1Cc1ccccc1)N1CCC(n2c(O)nc3ccccc32)CC1 (centres undefined) , AC50 observed: 0.538 µM (active)

Documented AC50 of C[C@@H]1CCCCO[C@H](CN(C)Cc2ccc(Cl)c(Cl)c2)[C@@H](C)CN([C@@H](C)CO)C(=O)c2cc(NC(=O)c3ccccc3)ccc2O1 : 8.87 µM (active)

----------
# TARGET SYSTEM: Cytochrome P450 2C19 (Homo sapiens, UniProt P33261)
# Sequence (P33261 whole entry): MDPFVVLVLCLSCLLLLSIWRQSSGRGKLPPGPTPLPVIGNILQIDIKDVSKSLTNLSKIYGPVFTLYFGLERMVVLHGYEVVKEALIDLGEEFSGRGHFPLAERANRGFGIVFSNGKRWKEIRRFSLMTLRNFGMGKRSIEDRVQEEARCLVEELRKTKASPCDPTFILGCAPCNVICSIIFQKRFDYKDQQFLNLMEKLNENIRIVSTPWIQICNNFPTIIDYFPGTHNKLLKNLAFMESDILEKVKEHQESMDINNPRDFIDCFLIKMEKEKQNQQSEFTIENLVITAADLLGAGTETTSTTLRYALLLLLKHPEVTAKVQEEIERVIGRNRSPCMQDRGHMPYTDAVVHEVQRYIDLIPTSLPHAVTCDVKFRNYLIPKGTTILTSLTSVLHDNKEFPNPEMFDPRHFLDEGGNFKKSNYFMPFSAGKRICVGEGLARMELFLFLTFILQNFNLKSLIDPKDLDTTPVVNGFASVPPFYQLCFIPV
# EXPERIMENT DESCRIPTION: Cytochrome panel assay with activity outcomes. Panel member name: p450-cyp2c19 Compounds with AC50 equal or less than 10 uM are considered active
# Type: functional
# MEASUREMENT CONDITIONS: read-out: AC50
PARAMETER MEASURED: AC50

1) O=C1N=C(N2CCOCC2)S/C1=C\C=C/c1ccccc1 :: 35.5 µM (inconclusive)
2) CC(C)Sc1cc(N2CCOCC2)nc(-c2ccc(Cl)cc2)n1 :: 11.2 µM (inconclusive)
3) Cc1c(Cl)c([N+](=O)[O-])nn1CC(=O)Nc1c(C)n(C)n(-c2ccccc2)c1=O :: 1.78 µM (inconclusive)
4) CCOc1ccc(-c2nnc3ccc(SCC(=O)NCc4ccco4)nn23)cc1 :: 1 µM (inconclusive)
5) COc1cccc(C(=O)NNC2=CC(=O)CC(C)(C)C2)c1 :: 25.1 µM (inconclusive)

Cc1c(C(=O)Nc2nccs2)sc2nc(-c3cccs3)cc(C(F)(F)F)c12 has a reported AC50 of 2.82 µM (inconclusive)

Please fill in: AC50 reported for N#Cc1c(-c2ccccc2)cc(-c2ccccc2)nc1SCc1nnc(-c2ccccc2)o1 = 1.41 µM (inconclusive)

Entry O=C(c1cnccn1)N1CCC2(CC1)CN(Cc1ccccc1)C2 — recorded AC50 = 15.8 µM (inconclusive)
